Cited source for all entries: ChEMBL document CHEMBL2311436

Tested on: Liver microsomes
Assay explanation: In vitro intrinsic clearance in human liver microsomes assessed per milligram
Assay type: ADME, Microsome
Property measured: CLH

Some compounds with known CLH results, for comparison:
OC[C@H]1O[C@@H](n2cc(-c3ccccc3)nn2)[C@H](O)[C@@H](O)[C@@H]1O = < 7 µL/min
CC(C)CC(=O)OC[C@H]1O[C@@H](n2cc(-c3ccccc3)nn2)[C@H](OC(=O)CC(C)C)[C@@H](OC(=O)CC(C)C)[C@@H]1OC(=O)CC(C)C = < 7 µL/min
CCCCC(=O)OC[C@H]1O[C@@H](n2cc(-c3ccccc3)nn2)[C@H](OC(=O)CCCC)[C@@H](OC(=O)CCCC)[C@@H]1OC(=O)CCCC = < 7 µL/min
CC(=O)OC[C@H]1O[C@@H](n2cc(-c3ccccc3)nn2)[C@H](OC(C)=O)[C@@H](OC(C)=O)[C@@H]1OC(C)=O = 423 µL/min

Consider the additional compound presented here.
Task: # CLH lookup, item `CCCC(=O)OC[C@H]1O[C@@H](n2cc(-c3ccccc3)nn2)[C@H](OC(=O)CCC)[C@@H](OC(=O)CCC)[C@@H]1OC(=O)CCC`
Output: 83 µL/min

---

Quick reference: half-life of the listed items.
Assay explanation: Degradation half life in human plasma
Format: ADME, cell-free
Numeric only. Scale: min

Some entries whose results are on file:
CCCC(=O)OC[C@H]1O[C@@H](n2cc(-c3ccccc3)nn2)[C@H](OC(=O)CCC)[C@@H](OC(=O)CCC)[C@@H]1OC(=O)CCC = 555
CCC(=O)OC[C@H]1O[C@@H](n2cc(-c3ccccc3)nn2)[C@H](OC(=O)CC)[C@@H](OC(=O)CC)[C@@H]1OC(=O)CC = 26

Next molecule, half-life to be filled in.
Task: Which half-life reading was recorded for the molecule `CC(=O)OC[C@H]1O[C@@H](n2cc(-c3ccccc3)nn2)[C@H](OC(C)=O)[C@@H](OC(C)=O)[C@@H]1OC(C)=O` ?
Output: 55

---

Subject of test: Albumin (Homo sapiens)
Sequence (P02768 whole entry): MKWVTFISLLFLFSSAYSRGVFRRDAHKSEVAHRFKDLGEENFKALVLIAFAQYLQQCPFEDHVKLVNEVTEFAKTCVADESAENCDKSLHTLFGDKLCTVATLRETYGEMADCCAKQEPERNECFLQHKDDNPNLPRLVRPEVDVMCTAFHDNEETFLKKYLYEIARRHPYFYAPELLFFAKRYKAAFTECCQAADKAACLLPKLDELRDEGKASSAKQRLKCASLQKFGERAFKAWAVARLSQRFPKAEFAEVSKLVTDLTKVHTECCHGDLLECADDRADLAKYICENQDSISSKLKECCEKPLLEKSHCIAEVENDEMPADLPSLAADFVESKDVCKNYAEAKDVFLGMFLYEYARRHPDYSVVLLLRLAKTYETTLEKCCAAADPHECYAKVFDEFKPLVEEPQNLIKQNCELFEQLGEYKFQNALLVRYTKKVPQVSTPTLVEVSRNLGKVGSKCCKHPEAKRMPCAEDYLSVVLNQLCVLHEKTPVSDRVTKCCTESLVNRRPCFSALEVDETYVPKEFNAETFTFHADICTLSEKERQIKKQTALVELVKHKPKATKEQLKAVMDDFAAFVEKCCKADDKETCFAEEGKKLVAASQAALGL
Assay explanation: Binding affinity to human serum albumin by chromatographic HSA binding assay
Type: ADME
Particulars: isolated protein
Property measured: Activity (%)
Expressed in %, but write only the number.

Example entries begin here.
CCC(=O)OC[C@H]1O[C@@H](n2cc(-c3ccccc3)nn2)[C@H](OC(=O)CC)[C@@H](OC(=O)CC)[C@@H]1OC(=O)CC = 88
CCCC(=O)OC[C@H]1O[C@@H](n2cc(-c3ccccc3)nn2)[C@H](OC(=O)CCC)[C@@H](OC(=O)CCC)[C@@H]1OC(=O)CCC = 96
CC(=O)OC[C@H]1O[C@@H](n2cc(-c3ccccc3)nn2)[C@H](OC(C)=O)[C@@H](OC(C)=O)[C@@H]1OC(C)=O = 59

Task: Form field - read-out: Activity; system: Albumin (Homo sapiens); submitted item: `OC[C@H]1O[C@@H](n2cc(-c3ccccc3)nn2)[C@H](O)[C@@H](O)[C@@H]1O`
Output: 19

---

As shown below, each of these compounds has a reported CLH value.
System: Liver microsomes
Assay explanation: In vitro intrinsic clearance in human liver microsomes assessed per milligram of protein in presence of NADPH
Type: ADME, Microsome

Examples with answers:
OC[C@H]1O[C@@H](n2cc(-c3ccccc3)nn2)[C@H](O)[C@@H](O)[C@@H]1O = < 7 µL/min
CC(C)CC(=O)OC[C@H]1O[C@@H](n2cc(-c3ccccc3)nn2)[C@H](OC(=O)CC(C)C)[C@@H](OC(=O)CC(C)C)[C@@H]1OC(=O)CC(C)C = < 7 µL/min

Task: Param item = `CCCC(=O)OC[C@H]1O[C@@H](n2cc(-c3ccccc3)nn2)[C@H](OC(=O)CCC)[C@@H](OC(=O)CCC)[C@@H]1OC(=O)CCC` ; retrieve measured CLH.
Output: 69 µL/min

Task: Param item: `CC(=O)OC[C@H]1O[C@@H](n2cc(-c3ccccc3)nn2)[C@H](OC(C)=O)[C@@H](OC(C)=O)[C@@H]1OC(C)=O`
Output: 397 µL/min

Task: Another compound to check: `CCCCC(=O)OC[C@H]1O[C@@H](n2cc(-c3ccccc3)nn2)[C@H](OC(=O)CCCC)[C@@H](OC(=O)CCCC)[C@@H]1OC(=O)CCCC`
Output: < 7 µL/min
